molecular target: CCR2 (Homo sapiens); assay: MCP-1 Receptor Binding Assay in THP-1 Cells; details: THP-1 cells, 0.5 nM 125I labeled MCP-1, 2 hours at 30° C.; read-out: Inhibition of MCP-1 Binding IC50
Threshold 3000 nM: IC50 strictly smaller gives true (1), otherwise false (0).

Before answering, review these 5 worked examples.
Compound: Cc1ccc2[nH]cc(C3CCN(CC(O)C4(O)CCN(c5nccc(C(F)(F)F)n5)CC4)CC3)c2c1 (stereo not shown)
Class Name: false (0)

Compound: Cc1cccc(/C=C/C(=O)N2CCC(C(O)CN3CCC(c4c[nH]c5ccccc45)CC3)CC2)c1 (stereo not shown)
Class Name: true (1)

Compound: COc1ccc(C2CCN(CC(O)C3CCN(C(=S)Nc4cccc(C#N)c4)CC3)CC2)cc1 (stereo not shown)
Class Name: true (1)

Compound: O=C(/C=C/c1ccc(F)c(F)c1)N1CCC(O)(C(O)CN2CCC(c3c[nH]c4ccccc34)CC2)CC1 (stereo not shown)
Class Name: true (1)

Compound: COc1ccc(C2CCN(CC(O)C3CCN(C(=O)Nc4cc(F)cc(C(F)(F)F)c4)CC3)CC2)cc1 (stereo not shown)
Class Name: true (1)

Could you now look at the following compound, please?
Does this compound meet the criterion IC50 < 3000 nM? OC(CN1CCC(c2ccc(Cl)cc2)CC1)C1(O)CCN(C(=S)Nc2cc(F)cc(F)c2F)CC1 (stereo not shown) false (0)

* * *

system: MCP-1 induced chemotaxis of THP-1 cells; assay: MCP-1 Induced Chemotaxis in THP-1 Cells; type: cell-based; conditions: Homo sapiens, MCP-1 0.01 μg/mL, 3 hours at 37° C., read-out: Inhibition of MCP-1 Induced Chemotaxis IC50
This listing pairs compounds with measured pIC50.
In plain terms, pIC50 is the concentration in mol/L turned into minus its base-10 logarithm.

Solved cases (3 shown):
Compound: O=C(/C=C/c1ccc(F)c(F)c1)N1CCC(O)(C(O)CN2CCC(c3ccc(C(F)(F)F)cc3)CC2)CC1 (stereo not shown) [Compound 137]
Target System: MCP-1 induced chemotaxis of THP-1 cells
pIC50: 6.77
--
Compound: O=C(/C=C/c1ccc(Cl)c(Cl)c1)N1CCC(O)(C(O)CN2CCC(c3c[nH]c4ccccc34)CC2)CC1 (stereo not shown) [Compound 75]
Target System: MCP-1 induced chemotaxis of THP-1 cells
pIC50: 7.52
--
Compound: O=C(/C=C/c1cccc(C(F)(F)F)c1)N1CCC(C(O)CN2CCC(c3c[nH]c4ncccc34)CC2)CC1 (stereo not shown) [Compound 22]
Target System: MCP-1 induced chemotaxis of THP-1 cells
pIC50: 6.44

Let us move to another entry and its pIC50.
Looking for the measured pIC50 of O=C(/C=C/c1ccc(Cl)c(Cl)c1)N1CCC(C(O)CN2CCC(c3c[nH]c4ccccc34)CC2)CC1 (stereo not shown) [Compound 6] , can you help? 7.70

* * *

This listing pairs compounds with measured pIC50.
Tested on: MCP-1 induced chemotaxis of THP-1 cells
Assay: MCP-1 Induced Chemotaxis in THP-1 Cells
Assay type: cell-based
Conditions: Homo sapiens, MCP-1 0.01 μg/mL, 3 hours at 37° C., read-out: Inhibition of MCP-1 Induced Chemotaxis IC50
Experimental: MCP-1 induced chemotaxis was run in a 24-well chemotaxis chamber. MCP-1 (0.01 μg/mL) was added to the lower chamber and 100 μL of THP-1 cells (1×10^7 cell/mL) was added to the top chamber. Varying concentrations of test compound were added to the top and bottom chambers. Cells were allowed to chemotax for 3 hours at 37° C. and 5% CO2. An aliquot of the cells that had migrated to the bottom chamber was taken and counted then compared to vehicle. […]
In plain terms, pIC50 is the concentration in mol/L turned into minus its base-10 logarithm.

Looking for the measured pIC50 of COc1ccc(C2CCN(CC(O)C3CCN(C(=O)/C=C/c4ccc(F)c(F)c4)CC3)CC2)cc1 (stereo not shown) , can you help? 7.00

Looking for the measured pIC50 of CS(=O)(=O)Nc1ccc2[nH]cc(C3CCN(CC(=O)C4CCN(C(=O)C=Cc5cc(F)c(F)c(F)c5)CC4)CC3)c2c1 , can you help? 6.38

Looking for the measured pIC50 of COc1ccc(C2CCN(CC(O)C3CCN(C(=S)Nc4ccc(Br)c(F)c4)CC3)CC2)cc1 (stereo not shown) , can you help? 7.15

Looking for the measured pIC50 of O=C(O)C(CC1CCN(C(=O)C=Cc2cc(F)cc(F)c2)CC1)N1CCC(c2c[nH]c3ccccc23)CC1 (stereo not shown) , can you help? 6.62

Looking for the measured pIC50 of COc1ccc(C2CCN(CC(O)C3CCN(C(=O)/C=C/c4ccc(Cl)c(Cl)c4)CC3)CC2)cc1 (stereo not shown) , can you help? 6.82

Looking for the measured pIC50 of COc1ccc(C2CCN(CC(O)C3CCN(C(=O)/C=C/c4cc(F)c(F)c(F)c4)CC3)CC2)cc1 (stereo not shown) , can you help? 7.22

Looking for the measured pIC50 of O=C(Nc1cc(F)cc(F)c1)N1CCC(O)(C(O)CN2CCC(c3ccc(C(F)(F)F)cc3)CC2)CC1 (stereo not shown) , can you help? 6.59

* * *

target: CCR2 (Homo sapiens, UniProt P41597); experiment: MCP-1 Receptor Binding Assay in THP-1 Cells; conditions: THP-1 cells, 0.5 nM 125I labeled MCP-1, 2 hours at 30° C.; read-out: Inhibition of MCP-1 Binding IC50
Sequence (P41597 1-360 isoform P41597-2): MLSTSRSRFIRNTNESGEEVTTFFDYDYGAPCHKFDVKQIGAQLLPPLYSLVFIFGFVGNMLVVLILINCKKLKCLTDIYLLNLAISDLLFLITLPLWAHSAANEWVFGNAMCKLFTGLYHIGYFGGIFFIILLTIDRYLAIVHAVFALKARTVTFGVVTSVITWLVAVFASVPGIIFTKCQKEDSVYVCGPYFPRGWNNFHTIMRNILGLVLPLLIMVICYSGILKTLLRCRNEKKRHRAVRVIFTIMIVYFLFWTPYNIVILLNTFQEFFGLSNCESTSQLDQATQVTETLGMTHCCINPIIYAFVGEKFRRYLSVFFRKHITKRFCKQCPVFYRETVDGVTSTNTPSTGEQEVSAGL
Observed Property: IC50 (nM)
Reply with just the number (in nM).

Molecule: O=C(Nc1cc(F)cc(F)c1)N1CCC(C(O)CN2CCC(c3c[nH]c4ccccc34)CC2)CC1 (centres unmarked)
Units Of Measure: nM
IC50: 160

Molecule: OC(CN1CCC(c2c[nH]c3ccccc23)CC1)C1(O)CCN(C(=S)Nc2cc(Cl)cc(Cl)c2)CC1 (centres unmarked)
Units Of Measure: nM
IC50: 860

Molecule: CS(=O)(=O)Nc1ccc2[nH]cc(C3CCN(CC(O)C4CCN(C(=O)C=Cc5cc(F)cc(F)c5)CC4)CC3)c2c1 (centres unmarked)
Units Of Measure: nM
IC50: 40

Molecule: COc1ccc(C2CCN(CC(O)C3(O)CCN(C(=O)/C=C/c4ccc(Cl)cc4)CC3)CC2)cc1 (centres unmarked)
Units Of Measure: nM
IC50: 480

Molecule: COc1ccc(C2CCN(CC(CO)C3CCN(C(=O)/C=C/c4cc(F)cc(F)c4)CC3)CC2)cc1 (centres unmarked)
Units Of Measure: nM
IC50: 120

Write down the reported IC50 of COc1ccc(C2CCN(CC(O)C3CCN(C(=S)Nc4cc(F)cc(F)c4F)CC3)CC2)cc1 (centres unmarked) , test system: CCR2 (Homo sapiens, UniProt P41597). 4200

Write down the reported IC50 of O=C(/C=C/c1ccc(Cl)c(Cl)c1)N1CCC(C(O)CN2CCC(c3nc4ccccc4[nH]3)CC2)CC1 (centres unmarked) , test system: CCR2 (Homo sapiens, UniProt P41597). 150

Write down the reported IC50 of Cc1cccc(C=CC(=O)N2CCC(C(O)CN3CCC(c4c[nH]c5ccc(NS(C)(=O)=O)cc45)CC3)CC2)c1 (centres unmarked) , test system: CCR2 (Homo sapiens, UniProt P41597). 80

Write down the reported IC50 of CS(=O)(=O)Nc1ccc2[nH]cc(C3CCN(CC(O)C4CCN(C(=O)/C=C/c5cc(F)c(F)c(F)c5)CC4)CC3)c2c1 (centres unmarked) , test system: CCR2 (Homo sapiens, UniProt P41597). 10

Write down the reported IC50 of O=C(/C=C/c1cc(F)cc(F)c1)N1CCC(C(O)CN2CCC(c3c[nH]c4ncccc34)CC2)CC1 (centres unmarked) , test system: CCR2 (Homo sapiens, UniProt P41597). 50

Write down the reported IC50 of OC(CN1CCC(c2ccc(C(F)(F)F)cc2)CC1)C1(O)CCN(C(=S)Nc2ccc(Cl)c(Cl)c2)CC1 (centres unmarked) , test system: CCR2 (Homo sapiens, UniProt P41597). 3400

Write down the reported IC50 of O=C(/C=C/c1cc(C(F)(F)F)cc(C(F)(F)F)c1)N1CCC(O)(C(O)CN2CCC(c3c[nH]c4ccc(N5CCOCC5)cc34)CC2)CC1 (centres unmarked) , test system: CCR2 (Homo sapiens, UniProt P41597). 8700

Write down the reported IC50 of O=C(Nc1ccc(F)c(F)c1)N1CCC(O)(C(O)CN2CCC(c3c[nH]c4ccccc34)CC2)CC1 (centres unmarked) , test system: CCR2 (Homo sapiens, UniProt P41597). 1300

Write down the reported IC50 of O=C(/C=C/c1ccc(Cl)c(Cl)c1)N1CCC(O)(C(O)CN2CCC(c3c[nH]c4ccc(F)cc34)CC2)CC1 (centres unmarked) , test system: CCR2 (Homo sapiens, UniProt P41597). 350

* * *

tested on: MCP-1 induced chemotaxis of THP-1 cells; test: MCP-1 Induced Chemotaxis in THP-1 Cells; type: cell-based; conditions: Homo sapiens, MCP-1 0.01 μg/mL, 3 hours at 37° C., read-out: Inhibition of MCP-1 Induced Chemotaxis IC50
pIC50: −log10 of the molar value.
# cutoff 7 applies to pIC50; >= gives MET, < gives NOT MET

Before answering, review these 3 worked examples.
Molecule: O=C(/C=C/c1cc(F)c(F)c(F)c1)N1CCC(O)(C(O)CN2CCC(c3ccc(F)cc3)CC2)CC1 (stereo not drawn)
Class Name: NOT MET

Molecule: COC(=O)NC(CN1CCC(c2ccc(OC)cc2)CC1)C1CCN(C(=O)C=Cc2cc(F)c(F)c(F)c2)CC1 (stereo not drawn)
Class Name: NOT MET

Molecule: O=C(/C=C/c1cc(F)cc(F)c1)N1CCC(O)(C(O)CN2CCC(c3ccc(F)cc3)CC2)CC1 (stereo not drawn)
Class Name: NOT MET

Determine whether this molecule has pIC50 no lower than 7: O=C(Nc1ccc(Cl)c(Cl)c1)N1CCC(O)(C(O)CN2CCC(c3c[nH]c4ccc(F)cc34)CC2)CC1 (stereo not drawn) MET

Determine whether this molecule has pIC50 no lower than 7: O=C(/C=C/c1cc(F)c(F)c(F)c1)N1CCC(O)(C(O)CN2CCC(c3c[nH]c4ccc(F)cc34)CC2)CC1 (stereo not drawn) NOT MET

Determine whether this molecule has pIC50 no lower than 7: O=C(/C=C/c1ccc(Cl)c(Cl)c1)N1CCC(C(O)CN2CCC(c3c[nH]c4ncccc34)CC2)CC1 (stereo not drawn) MET

Determine whether this molecule has pIC50 no lower than 7: Cc1cccc(C=CC(=O)N2CCC(C(O)CN3CCC(c4c[nH]c5ccc(NS(C)(=O)=O)cc45)CC3)CC2)c1 (stereo not drawn) MET

Determine whether this molecule has pIC50 no lower than 7: COc1ccc(C2CCN(CC(O)C3CCN(C(=O)/C=C/c4cc(F)cc(F)c4)CC3)CC2)cc1 (stereo not drawn) MET

Determine whether this molecule has pIC50 no lower than 7: COc1ccc(C2CCN(CC(O)C3CCN(C(=S)Nc4cccc(Br)c4)CC3)CC2)cc1 (stereo not drawn) NOT MET
